Task for the reader: assign each of the following variants its reported yeast fitness.
B1: tRNA (parent)
chain: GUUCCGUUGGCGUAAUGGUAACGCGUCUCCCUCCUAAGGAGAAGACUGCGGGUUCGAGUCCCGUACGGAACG

- Variants of: B1
- assayDetails: yeast fitness relative to wild type (ratio to wild type); higher = fitter; tRNA-Arg(CCU), competitive growth, 37 C, YPD
Variants at the floor of the assay were thinned out.

**Q:** Supply reported yeast fitness belonging to this variant: A40G G52C C66G
**A:** ≤ 0.5

**Q:** Specify measured yeast fitness for A21U C66A .
**A:** 0.574

**Q:** Identify measured yeast fitness associated with C11U C55U
**A:** 0.8

**Q:** Respond only with yeast fitness recorded for U8C A14C C55U C61G C62G
**A:** ≤ 0.5

**Q:** Hello, please tell me recorded yeast fitness for this one: U7A A20C C29U C33G
**A:** 0.638

**Q:** Look up yeast fitness of U3C G9A A69U and report it.
**A:** 0.882

**Q:** Indicate the recorded yeast fitness value for this variant: C4G G17A C55U A70G
**A:** ≤ 0.5

**Q:** Identify the reported yeast fitness for the following entry. C27U U35G A40C A57C G67U
**A:** 0.612

**Q:** Please look at this variant and report its yeast fitness: C11U G56A C62G
**A:** ≤ 0.5

**Q:** # return recorded yeast fitness for input G10C U16C C22A C33A
**A:** ≤ 0.5

**Q:** Identify the reported yeast fitness for the following entry. A15U C46A G68U A70C
**A:** ≤ 0.5

**Q:** Please report the measured yeast fitness for A14C U19C C33G
**A:** 0.641

**Q:** Quick one: give measured yeast fitness for A14U A57C U59A
**A:** 0.703

**Q:** Supply reported yeast fitness belonging to this variant: A40U G58C
**A:** 0.945

**Q:** Read the entry A14C C34U A36G G39C and write its reported yeast fitness.
**A:** 0.535

**Q:** Consider the variant A45G U47G . State its measured yeast fitness.
**A:** 0.756

**Q:** # return recorded yeast fitness for input C5G U13C A21C A57U A65U G68C
**A:** ≤ 0.5

**Q:** Return the recorded yeast fitness value; entry: C11U A42G G51U A57U
**A:** ≤ 0.5

**Q:** Please look at this variant and report its yeast fitness: A21G C29U A37U G63C
**A:** ≤ 0.5

**Q:** Could you please provide reported yeast fitness for C31A A40C G52A G68C ? Thanks!
**A:** ≤ 0.5

**Q:** In one line, give reported yeast fitness of the entry U19A A20U U53C .
**A:** ≤ 0.5

**Q:** Quick one: give measured yeast fitness for G18A C27U G39A C60A
**A:** ≤ 0.5

**Q:** Input G9A G12C A14C , output reported yeast fitness.
**A:** 0.535

**Q:** Find the measured yeast fitness of A57G C66U and report it.
**A:** 0.816

**Q:** State, in one line, measured yeast fitness of U54C G56A
**A:** 0.788

**Q:** Hello, please tell me recorded yeast fitness for this one: G9C A21G U64A
**A:** ≤ 0.5

**Q:** Give yeast fitness for the following variant: U28G C30G A40C A42U G51A
**A:** ≤ 0.5

**Q:** Identify yeast fitness associated with the variant U3C C22U C55G U64A
**A:** ≤ 0.5

**Q:** Given the variant C5G A43C , write its reported yeast fitness.
**A:** 0.744

**Q:** Write down yeast fitness measured for item C31G A40G G52C
**A:** ≤ 0.5

**Q:** For the variant C11U C31U U64A A70G , give its measured yeast fitness value.
**A:** ≤ 0.5

**Q:** Give the measured yeast fitness for U19G G38C A57U
**A:** 0.552

**Q:** Please report the measured yeast fitness for U16A U26A C30G U59C
**A:** ≤ 0.5

**Q:** Name the recorded yeast fitness of the item A36C A37C U53G in your answer.
**A:** ≤ 0.5

**Q:** Give yeast fitness for G10A C34U G44A
**A:** ≤ 0.5

**Q:** Note yeast fitness for the variant shown: C4G C5A C27A C61A
**A:** ≤ 0.5

**Q:** Annotate the variant C27U U32C C55A with its measured yeast fitness.
**A:** ≤ 0.5

**Q:** Annotate the variant U8G C24G G41A A65G with its measured yeast fitness.
**A:** ≤ 0.5

**Q:** Given the variant A21U G48C C55A C66G G67C , write its reported yeast fitness.
**A:** 0.526

**Q:** Return yeast fitness for the following variant: A15C U28C G48C G68U A69U
**A:** ≤ 0.5

**Q:** Please indicate yeast fitness recorded for C27U C55A A69C
**A:** 0.573

**Q:** Give the measured yeast fitness for C5G A42G C49G A70U
**A:** ≤ 0.5

**Q:** Consider the variant U3G U8A C31A G52A and give its recorded yeast fitness.
**A:** ≤ 0.5

**Q:** Please look at this variant and report its yeast fitness: G10C C29U C34U G38A G44C
**A:** ≤ 0.5

**Q:** Output yeast fitness of C27U A37G C55U
**A:** ≤ 0.5

**Q:** Tell me its yeast fitness given C5G G17A G18A as the entry.
**A:** 0.553
